These entries and their values trace back to ChEMBL document CHEMBL4043282.

experiment: Total plasma concentration in mouse at 30 mg/kg administered via oral gavage measured after 16 hrs post dose by LC/MS/MS analysis; type: ADME, organism-based
QUANTITY NAME: concentration at 16 h (nM)
# unit: nM | format: bare number

Could you tell me which concentration at 16 h is on file for "Cc1ncc(F)cc1NC(=O)C[C@H](C(=O)N[C@@H]1C(=O)N2CC3(CC3)CN2C(=O)c2ccccc21)C1CC1" ?
136

* * *

assay: Clearance in Wistar rat at 3 mg/kg, iv by LC/MS/MS analysis; type: ADME, organism-based; settings: in vivo
QUANTITY NAME: clearance (mL/min/kg)
Lab book: enter the figure in mL/min/kg, no units written.

What value of measured clearance is listed for "Cc1ncc(F)cc1NC(=O)C[C@H](C(=O)N[C@@H]1C(=O)N2CC3(CC3)CN2C(=O)c2ccccc21)C1CC1" ?
6

* * *

assay: Drug uptake in Lewis rat spleen at 30 mg/kg, po bid after 24 hrs by LC/MS/MS analysis; type: ADME, organism-based; details: read-out: Drug uptake
QUANTITY NAME: concentration at 24 h (µM)
Output spec: scalar in µM, unitless text.

Value lookup for concentration at 24 h; key = "Cc1ncc(F)cc1NC(=O)C[C@H](C(=O)N[C@@H]1C(=O)N2CC3(CC3)CN2C(=O)c2ccccc21)C1CC1"
4.45

* * *

The reader will find reported bioavailability values listed item by item below.
assay: Oral bioavailability in Balb/c mouse by LC/MS/MS analysis; type: ADME, organism-based; conditions: in vivo
Give the value in % but do not write % after it.

Cc1ncc(F)cc1NC(=O)C[C@H](C(=O)N[C@@H]1C(=O)N2CC3(CC3)CN2C(=O)c2ccccc21)C1CC1 = 94

--- query ---
Consider the compound "Cc1ccccc1NC(=O)C[C@@H](C)C(=O)N[C@@H]1C(=O)N2CCCN2Cc2ccccc21" and give its measured bioavailability.
100

* * *

assay: Drug uptake in mouse spleen at 100 mg/kg, po administered as single dose after 4 hrs by LC/MS/MS analysis; assay type: ADME, organism-based; conditions: read-out: Drug uptake
QUANTITY NAME: concentration at 4 h (nM)
// units = nM; emit number, no label

So what's the measured concentration at 4 h for this one? "Cc1ccccc1NC(=O)C[C@@H](C)C(=O)N[C@@H]1C(=O)N2CCCN2Cc2ccccc21"
1440

* * *

tested on: Plasma; assay: Cmin in mouse plasma at 30 mg/kg, po bid administered at 8 and 16 hrs dosing interval between first and second dose respectively for 11 days measured predose on day 12 by LC/MS/MS analysis; format: ADME, organism-based; conditions: in vivo, read-out: Cmin
QUANTITY NAME: concentration (nM)
Field format: number, assumed nM, no unit text.

Quick check: concentration of "Cc1ncc(F)cc1NC(=O)C[C@H](C(=O)N[C@@H]1C(=O)N2CC3(CC3)CN2C(=O)c2ccccc21)C1CC1" ?
1100

* * *

assay: Total concentration in Lewis rat blood at 3 mg/kg, po bid after 24 hrs by LC/MS/MS analysis; type: ADME, organism-based; settings: read-out: Drug uptake
QUANTITY NAME: concentration at 24 h (nM)
Write down the numeric answer in nM and omit the unit.

Item "Cc1ncc(F)cc1NC(=O)C[C@H](C(=O)N[C@@H]1C(=O)N2CC3(CC3)CN2C(=O)c2ccccc21)C1CC1" has what recorded concentration at 24 h?
231

* * *

assay: Inhibition of human gamma-secretase expressed in HEK293 cells using Notch1-VP16-Gal4 as substrate after 24 hrs by Bright-Glo luciferase reporter gene assay; format: cell-based; conditions: HEK293, 24 h
QUANTITY NAME: IC50

Some solved entries appear below for comparison.
C[C@H](CC(=O)Nc1ccccc1C(F)(F)F)C(=O)N[C@@H]1C(=O)N2CCCN2Cc2ccccc21 = > 10 µM
Cc1ncccc1NC(=O)C[C@@H](C)C(=O)N[C@@H]1C(=O)N2CCCN2Cc2ccccc21 = > 10 µM
CC(C)C[C@H](NC(=O)OCc1ccccc1)C(=O)N[C@@H](CC(C)C)C(=O)NCC(=O)CNC(=O)[C@H](CC(C)C)NC(=O)[C@H](CC(C)C)NC(=O)OCc1ccccc1 = > 10 µM

Item under review: "Cc1ncc(F)cc1NC(=O)C[C@@H](C)C(=O)N[C@@H]1C(=O)N2CCCN2C(=O)c2ccccc21" . Reported IC50?
> 10 µM

Would you kindly share the measured IC50 for "C[C@H](NC(=O)[C@@H](O)c1cc(F)cc(F)c1)C(=O)N[C@@H]1C(=O)N(C)c2ccccc2-c2ccccc21" ?
< 0.0003 µM

// lookup IC50 for "Cc1ncc(F)cc1NC(=O)C[C@H](C(=O)N[C@@H]1C(=O)N2CCCN2C(=O)c2ccccc21)C1CC1"
> 10 µM
